assay: Experimental LogD (partition coefficient)
endpoint_label: Partition Coeff LogD

structure_smiles=CC(=O)N[C@@H](CCCNC(=N)N)C(=O)NCCC(=O)N[C@@H](CCCCN=[N+]=[N-])C(=O)N[C@@H](CC(C)C)C(=O)N[C@H](C(=O)N[C@@H](Cc1ccccc1)C(=O)N[C@]1(C)CCCCCCC=CCCC[C@@](C)(C(=O)N[C@@H](CO)C(=O)N[C@@H](C)C(=O)N[C@@H](C)C(N)=O)NC(=O)[C@H](CC2CCC2)NC(=O)[C@H](CCC(N)=O)NC(=O)[C@H](C)NC(=O)[C@H](Cc2c[nH]c3ccccc23)NC(=O)[C@H](Cc2ccc(O)cc2)NC(=O)[C@H](CCC(=O)O)NC1=O)[C@@H](C)O result="Poorly Behaved"
structure_smiles=CC(=O)N[C@@H](CCCCN=[N+]=[N-])C(=O)NCCC(=O)N[C@H]1CCCCNC(=O)CC[C@@H]2NC(=O)[C@@](C)(CCCCCCC=CCCC[C@@](C)(C(=O)N[C@@H](CO)C(=O)N[C@@H](C)C(=O)N[C@@H](C)C(N)=O)NC(=O)[C@H](CC3CCC3)NC(=O)[C@H](CCC(N)=O)NC(=O)[C@H](C)NC(=O)[C@H](Cc3c[nH]c4ccccc34)NC(=O)[C@H](Cc3ccc(O)cc3)NC2=O)NC(=O)[C@H](Cc2ccccc2)NC(=O)[C@H]([C@@H](C)O)NC1=O result="Poorly Behaved"
